# TESTED ON: T1, Max 37-83 (Homo sapiens, UniProt P61244)
# T1 chain: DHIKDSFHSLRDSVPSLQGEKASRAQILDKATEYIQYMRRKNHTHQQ
# ASSAY DETAILS: single-molecule SiNW-FET electrical recording (pH 6.5)
VALUE TYPE: Kd (nM)
Numeric only. Scale: nM

Req: Look up Kd for this binder: KRRTHNVLERQRRNELKRSFFALRDQIPELENNEKAPKVVILKKA (C-terminal cysteine added to c-Myc, immobilized on nanowire) [c-Myc 370-414]
Resp: 67
